target: human recombinant serotonin (5-Hydroxytryptamine) 5-HT7 receptor (Homo sapiens, UniProt P34969); assay: Serotonin 5-HT7 radioligand binding ([3H]LSD); conditions: 0.1 μM ligand concentration
Sequence (P34969 whole entry): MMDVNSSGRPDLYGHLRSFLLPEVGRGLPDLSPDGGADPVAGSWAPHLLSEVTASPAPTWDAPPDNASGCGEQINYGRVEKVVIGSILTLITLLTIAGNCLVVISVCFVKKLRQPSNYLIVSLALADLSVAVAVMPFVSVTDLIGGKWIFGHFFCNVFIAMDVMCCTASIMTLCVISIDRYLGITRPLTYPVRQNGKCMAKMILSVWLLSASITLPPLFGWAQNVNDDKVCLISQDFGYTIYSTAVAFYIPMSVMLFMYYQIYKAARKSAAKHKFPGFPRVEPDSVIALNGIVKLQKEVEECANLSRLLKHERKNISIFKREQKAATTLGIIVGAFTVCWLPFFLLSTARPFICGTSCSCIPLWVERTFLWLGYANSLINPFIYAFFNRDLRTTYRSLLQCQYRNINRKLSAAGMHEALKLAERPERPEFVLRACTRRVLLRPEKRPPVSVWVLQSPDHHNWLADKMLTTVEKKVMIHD
measurement_type: Percent Inhibition of ligand binding Serotonin 5-HT7

[
  {
    "compound": "FC(F)(F)c1ccc(CCn2c3c(c4cccnc42)CN2CCCC2C3)cn1 (stereo not shown) [Compound 39]",
    "reported_result": "2%"
  },
  {
    "compound": "C/C(=C\\n1c2c(c3cc(C)ccc31)C1CCCN1CC2)c1ccc(C)nc1 (stereo not shown) [Compound 32]",
    "reported_result": "61%"
  },
  {
    "compound": "Cc1cnc2c(c1)c1c(n2CC(=O)N2CCCCC2)CCN2CCCC12 (stereo not shown) [Compound 41]",
    "reported_result": "−5%"
  }
]

Request: Tell me measured Percent Inhibition of ligand binding Serotonin 5-HT7 for Cc1cnc2c(c1)c1c(n2CC(=O)N2CCCCC2)CC2CCCN2C1 (stereo not shown) [Compound 42] please.
Result: −1%

Request: Tell me measured Percent Inhibition of ligand binding Serotonin 5-HT7 for O=C(Cn1c2c(c3cccnc31)C1CCCN1CC2)N1CCCCC1 (stereo not shown) [Compound 38] please.
Result: 23%

Request: Tell me measured Percent Inhibition of ligand binding Serotonin 5-HT7 for Cc1ccc(CCn2c3c(c4cccnc42)CN2CCCC2C3)cn1 (stereo not shown) [Compound 35] please.
Result: 6%

Request: Tell me measured Percent Inhibition of ligand binding Serotonin 5-HT7 for Cc1ccc(CCn2c3c(c4cccnc42)C2CCCN2CC3)cn1 (stereo not shown) [Compound 34] please.
Result: 18%

Request: Tell me measured Percent Inhibition of ligand binding Serotonin 5-HT7 for Cc1cnc2c(c1)c1c(n2CCc2ccc(C)nc2)CCN2CCCC12 (stereo not shown) [Compound 33] please.
Result: 44%

Request: Tell me measured Percent Inhibition of ligand binding Serotonin 5-HT7 for Cc1cnc2c(c1)c1c(n2CCc2ccc(C)nc2)CC2CCCN2C1 (stereo not shown) [Compound 36] please.
Result: 23%

Request: Tell me measured Percent Inhibition of ligand binding Serotonin 5-HT7 for Cc1cnc2c(c1)c1c(n2CCc2ccc(C(F)(F)F)nc2)CC2CCCN2C1 (stereo not shown) [Compound 44] please.
Result: 24%

Values from patent US9045482B2
